Measured selectivity ratio by item
TEST_PROTOCOL: Therapeutic index, ratio of CC50 for human HuH7 cells to EC50 for antiviral activity against HCV infected in human HuH7-luc/neo cells assessed as inhibition of DNA replication i
TEST_SETTINGS: HuH7 cells (CC50) and HCV-infected HuH7-luc/neo cells (EC50)
Write no unit; give the number alone.

Would you please look over these solved cases?
INSERT INTO assay_data (smiles, experimental_endpoint, numeric_value) VALUES
  ('O=C(CCc1ccccc1)NO', 'selectivity ratio', 21),
  ('CCCNNC(=O)c1ccc(Cn2c(C)nc3ccccc32)cc1', 'selectivity ratio', 400);

So, CCCNNC(=O)CCc1ccccc1 ? Its selectivity ratio was 25

So, O=C(NO)C1c2ccccc2Oc2ccccc21 ? Its selectivity ratio was 400
